Settings: Ebola virus entry assay, blue channel fluorescence
Active and inactive are the calls of the source. No rule for the calls is given here.
RECORDED METRIC: AC50

Recorded AC50, per entry:
COMPOUND: CC(C)c1cc2c(cc1S(=O)(=O)O)[C@@]1(C)CCC[C@@](C)(C(=O)O)[C@@H]1CC2
AC50: inactive
//
COMPOUND: Clc1ccc(C(Cn2ccnc2)OCc2c(Cl)cccc2Cl)c(Cl)c1 (stereo not drawn)
AC50: 14.1 µM (active)
//
COMPOUND: COc1ccc2nc(NC(=O)Nc3ccccc3)sc2c1
AC50: 22.4 µM (active)
//
COMPOUND: CN1CCN(c2c(F)cc3c(=O)c(C(=O)O)cn(CCF)c3c2F)CC1
AC50: inactive
//
COMPOUND: O=C(Nc1ccccc1)OCC(CN1CCCCC1)OC(=O)Nc1ccccc1 (stereo not drawn)
AC50: 10 µM (active)
//
COMPOUND: COCC(=O)N(c1c(C)cccc1C)C(C)C(=O)OC (stereo not drawn)
AC50: inactive
//
COMPOUND: CC(C)=CCOc1ccc(/C=C/C(=O)c2ccc(OCC=C(C)C)cc2OCC(=O)O)cc1
AC50: inactive
//
COMPOUND: N[C@@H](Cc1ccc(O)cc1)C(=O)O
AC50: inactive
//
COMPOUND: O=C(O)[C@H](O)[C@@H](O)[C@H](O[C@@H]1O[C@H](CO)[C@H](O)[C@H](O)[C@H]1O)[C@H](O)CO
AC50: inactive
//
COMPOUND: CC(=O)Oc1ccc(C2(c3ccc(OC(C)=O)cc3)C(=O)Nc3ccccc32)cc1
AC50: inactive

// AC50 lookup, compound = CCCCN1CCCC1C(=O)Nc1c(C)cc(C)cc1C (stereo not drawn) , result: inactive

Form: compound = `CC(=O)OC/C=C(C)/C=C/C=C(C)/C=C/C1=C(C)CCCC1(C)C` ; AC50 = inactive

Memo: Cc1ccc2c(c1)c1c3n2CCNC3CCC1 (stereo not drawn) , reported AC50: 28.2 µM (active)
